observed_property: melting point

CC(C)CNC(=O)CC1SC(=S)N(Cc2ccccc2)C1=O (stereo not shown) ... 164 to 166 °C
CCCCN1C(=O)C(CC(=O)NCc2ccc(C)cc2)SC1=S (stereo not shown) ... 174 to 176 °C
CCCNC(=O)CC1SC(=S)N(Cc2ccccc2)C1=O (stereo not shown) ... 165 to 167 °C
O=C(CC1SC(=S)N(Cc2ccccc2)C1=O)NCc1ccc(F)cc1 (stereo not shown) ... 169 to 171 °C
CCCCN1C(=O)[C@@H](CC(=O)NCc2ccccc2)SC1=S (racemic) ... 172 to 174 °C
CCCCN1C(=O)C(CC(=O)NCC(C)C)SC1=S (stereo not shown) ... 170 to 172 °C
O=C(CC1SC(=S)N(Cc2ccccc2)C1=O)NCc1ccccc1 (stereo not shown) ... 168 to 170 °C
Cc1ccc(CNC(=O)CC2SC(=S)N(Cc3ccccc3)C2=O)cc1 (stereo not shown) ... 167 to 169 °C

Hello, I would appreciate it if you could give melting point for each entry below.
1. CCCNC(=O)CC1SC(=S)N(CC(C)C)C1=O (stereo not shown)
2. O=C(CC1SC(=S)N(Cc2ccccc2)C1=O)NC1CCCC1 (stereo not shown)

1: 160 to 162 °C; 2: 167 to 169 °C

====

Target: urease (Canavalia ensiformis, UniProt P07374)
Sequence (P07374 whole entry, looked up): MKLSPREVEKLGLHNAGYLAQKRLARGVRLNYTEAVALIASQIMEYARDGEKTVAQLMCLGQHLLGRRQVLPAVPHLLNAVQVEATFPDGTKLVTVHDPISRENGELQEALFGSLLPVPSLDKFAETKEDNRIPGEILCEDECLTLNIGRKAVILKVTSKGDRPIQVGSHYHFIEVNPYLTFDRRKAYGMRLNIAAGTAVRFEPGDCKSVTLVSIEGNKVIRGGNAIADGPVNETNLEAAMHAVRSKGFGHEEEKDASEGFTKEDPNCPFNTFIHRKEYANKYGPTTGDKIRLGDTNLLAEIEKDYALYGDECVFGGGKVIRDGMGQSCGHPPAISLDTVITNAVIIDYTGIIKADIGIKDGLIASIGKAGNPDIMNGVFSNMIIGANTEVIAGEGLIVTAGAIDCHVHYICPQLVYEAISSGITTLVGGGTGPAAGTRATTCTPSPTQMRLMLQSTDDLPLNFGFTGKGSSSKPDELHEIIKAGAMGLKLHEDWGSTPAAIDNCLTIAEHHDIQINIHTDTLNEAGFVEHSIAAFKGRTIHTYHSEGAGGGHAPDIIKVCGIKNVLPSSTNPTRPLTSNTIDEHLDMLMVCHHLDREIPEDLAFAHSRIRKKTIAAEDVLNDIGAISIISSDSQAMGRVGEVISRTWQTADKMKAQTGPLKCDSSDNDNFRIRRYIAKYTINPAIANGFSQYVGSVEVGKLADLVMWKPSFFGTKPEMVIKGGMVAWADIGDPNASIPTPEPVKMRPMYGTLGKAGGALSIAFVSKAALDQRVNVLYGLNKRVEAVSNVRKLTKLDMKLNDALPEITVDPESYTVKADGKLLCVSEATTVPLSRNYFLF
Test: biochemical
Assay type: biochemical
Conditions: mean ± SEM, at least three experiments; listed as hydroxyurea; read-out: IC50 (μM), urease inhibitory activity
observed_property: IC50
Put down the number, then write its unit next to it.

For the molecule NC(=O)NO [Hydroxyurea, reference compound] , what IC50 is on record?
100 µM

====

Tested on: urease-positive clinical isolate of P. vulgaris
Experiment: Urease inhibitory activity against P. vulgaris (Christensen's urea medium, 560 nm)
Format: cell-based
Details: Proteus vulgaris; 24 h at 37 °C, read at 560 nm
observed_property: IC50

Hello, I would appreciate it if you could give IC50 for each entry below.
1. CCCCNC(=O)CC1SC(=S)N(Cc2ccccc2)C1=O (stereo not drawn)
2. CCCNC(=O)CC1SC(=S)N(Cc2ccccc2)C1=O (stereo not drawn)
3. CCCCN1C(=O)[C@@H](CC(=O)NCc2ccccc2)SC1=S (racemic)
4. O=C(CC1SC(=S)N(Cc2ccccc2)C1=O)NC1CCCC1 (stereo not drawn)
5. CC(C)CNC(=O)CC1SC(=S)N(Cc2ccccc2)C1=O (stereo not drawn)

1: 15.3 µg/mL; 2: 126 µg/mL; 3: 17.8 µg/mL; 4: ≥ 512 µg/mL; 5: 32.4 µg/mL

For the compound C=CCNC(=O)CC1SC(=S)N(Cc2ccccc2)C1=O (stereo not drawn) , what IC50 is on record?
61.7 µg/mL

====

Test: In vitro cytotoxic evaluation (MTT assay)
Format: cell-based
Conditions: human, MOLT-4 cells
observed_property: viability at 72 h, 100 µM (%)
Numbers only, in %.

Examples with answers:
O=C(CC1SC(=S)N(Cc2ccccc2)C1=O)NC1CCCC1 (stereo not shown) ... 95
CC(C)CN1C(=O)C(CC(=O)NCc2ccccc2)SC1=S (stereo not shown) ... 93.6
CCCNC(=O)CC1SC(=S)N(CC(C)C)C1=O (stereo not shown) ... 96.4
C=CCNC(=O)CC1SC(=S)N(Cc2ccccc2)C1=O (stereo not shown) ... 91.6

Hello, I would appreciate it if you could give viability at 72 h, 100 µM for each entry below.
1. CCCCN1C(=O)C(CC(=O)NCc2ccc(C)cc2)SC1=S (stereo not shown)
2. CC(C)CNC(=O)CC1SC(=S)N(Cc2ccccc2)C1=O (stereo not shown)
3. Cc1ccc(CNC(=O)CC2SC(=S)N(Cc3ccccc3)C2=O)cc1 (stereo not shown)
4. CCCCNC(=O)CC1SC(=S)N(Cc2ccccc2)C1=O (stereo not shown)
5. CCCCN1C(=O)C(CC(=O)NCC(C)C)SC1=S (stereo not shown)
6. CCCCN1C(=O)[C@@H](CC(=O)NCc2ccccc2)SC1=S (racemic)

97.7
91.9
91.2
91.7
98.5
97.8

====

Target: urease (Canavalia ensiformis)
observed_property: Ki (nM)
Answers are plain numbers, in nM.

For the compound CCCCN1C(=O)[C@@H](CC(=O)NCc2ccccc2)SC1=S (racemic) , what Ki is on record?
1170

====

Experiment: In vitro cytotoxic evaluation (MTT assay)
Assay type: cell-based
Details: human, MOLT-4 cells, read-out: IC50 (µM), cytotoxicity
observed_property: IC50 at 72 h (µM)
Numbers only, in µM.

For the molecule COc1cccc2c1C(=O)c1c(O)c3c(c(O)c1C2=O)C[C@@](O)(C(=O)CO)C[C@@H]3O[C@H]1C[C@H](N)[C@H](O)[C@H](C)O1 [Doxorubicin, reference compound] , what IC50 at 72 h is on record?
12.7

====

Target: urease (Canavalia ensiformis)
Test: biochemical
Assay type: biochemical
Kindly apply the following: Yes if IC50 is less than 2000 nM, No in every other case.

Recorded results for 5 molecules are shown here.
O=C(CC1SC(=S)N(Cc2ccccc2)C1=O)NCc1ccc(F)cc1 (stereo not drawn) ... No
CCCCN1C(=O)[C@@H](CC(=O)NCc2ccccc2)SC1=S (racemic) ... Yes
CCCCN1C(=O)C(CC(=O)NCc2ccc(C)cc2)SC1=S (stereo not drawn) ... No
O=C(CC1SC(=S)N(Cc2ccccc2)C1=O)NC1CCCC1 (stereo not drawn) ... Yes
CCCNC(=O)CC1SC(=S)N(CC(C)C)C1=O (stereo not drawn) ... No

Could you please tell me whether IC50 recorded for O=C(CC1SC(=S)N(Cc2ccccc2)C1=O)NCc1ccccc1 (stereo not drawn) is less than 2000 nM?
No

Could you please tell me whether IC50 recorded for CC(C)CN1C(=O)C(CC(=O)NCc2ccccc2)SC1=S (stereo not drawn) is less than 2000 nM?
No

Could you please tell me whether IC50 recorded for Cc1ccc(CNC(=O)CC2SC(=S)N(CC(C)C)C2=O)cc1 (stereo not drawn) is less than 2000 nM?
No

====

observed_property: melting point

Examples with answers:
C=CCNC(=O)CC1SC(=S)N(CC(C)C)C1=O (stereo not shown) [Compound 6o] ... 164 to 166 °C
CCCCNC(=O)CC1SC(=S)N(Cc2ccccc2)C1=O (stereo not shown) [Compound 6e] ... 166 to 168 °C

Hello, I would appreciate it if you could give melting point for each entry below.
1. Cc1ccc(CNC(=O)CC2SC(=S)N(CC(C)C)C2=O)cc1 (stereo not shown) [Compound 6m]
2. CC(C)CN1C(=O)C(CC(=O)NCc2ccccc2)SC1=S (stereo not shown) [Compound 6l]

["173 to 175 °C", "169 to 171 °C"]

====

Assay: In vitro cytotoxic evaluation (MTT assay)
Assay type: cell-based
Conditions: human, MOLT-4 cells
observed_property: viability at 72 h, 100 µM (%)
Give bare numbers, in %.

O=C(CC1SC(=S)N(Cc2ccccc2)C1=O)NCc1ccc(F)cc1 (centres unmarked) ... 92.7
CCCNC(=O)CC1SC(=S)N(Cc2ccccc2)C1=O (centres unmarked) ... 95.5
C=CCNC(=O)CC1SC(=S)N(CC(C)C)C1=O (centres unmarked) ... 97.3
Cc1ccc(CNC(=O)CC2SC(=S)N(CC(C)C)C2=O)cc1 (centres unmarked) ... 97.7

Let us move to another entry and its viability at 72 h, 100 µM.
For the compound O=C(CC1SC(=S)N(Cc2ccccc2)C1=O)NCc1ccccc1 (centres unmarked) , what viability at 72 h, 100 µM is on record?
95.5

====

Molecular target: urease (Canavalia ensiformis)
Experiment: biochemical
Assay type: biochemical
Details: mean ± SEM, at least three experiments; read-out: IC50 (μM), urease inhibitory activity
observed_property: IC50 (µM)
Numbers only, in µM.

NC(=O)NO [Hydroxyurea, reference compound] ... 100

Let us move to another entry and its IC50.
For the compound NC(N)=S [Thiourea, reference compound] , what IC50 is on record?
23.6

====

Molecular target: urease (Canavalia ensiformis, UniProt P07374)
Test: biochemical
Assay type: biochemical
Provide the recorded IC50 for the entries that follow.
One number for each entry, in nM.

Examples with answers:
C=CCNC(=O)CC1SC(=S)N(CC(C)C)C1=O (stereo not shown) ... 9270
CCCCNC(=O)CC1SC(=S)N(Cc2ccccc2)C1=O (stereo not shown) ... 1640
CCCNC(=O)CC1SC(=S)N(Cc2ccccc2)C1=O (stereo not shown) ... 1850

Hello, I would appreciate it if you could give IC50 for each entry below.
1. Cc1ccc(CNC(=O)CC2SC(=S)N(Cc3ccccc3)C2=O)cc1 (stereo not shown)
2. CC(C)CNC(=O)CC1SC(=S)N(Cc2ccccc2)C1=O (stereo not shown)

1. 4020
2. 1590

Hello, I would appreciate it if you could give IC50 for each entry below.
1. C=CCNC(=O)CC1SC(=S)N(Cc2ccccc2)C1=O (stereo not shown)
2. CCCCN1C(=O)C(CC(=O)NCC(C)C)SC1=S (stereo not shown)

[1610, 1910]
